growth: recorded values
Test system: ACHN renal
Experiment: NCI-60 one-dose screen, 48 h (100 = growth as untreated, 0 = no growth, -100 = all killed)
Settings: 10 µM unless noted
Compounds without any hit were thinned out: in the full panel of roughly 83,000, 20% have a hit.
Numeric only. Scale: %

CCNC(=O)Oc1ccc(/C(=C(\C)c2ccccc2)c2ccc(OCCCN(C)C)cc2)cc1 :: 98.1
N#CC1C(C#N)C2c3ccccc3C=CN2C1C(=O)c1ccc(Br)cc1 (stereo not given) :: 90.3
O=C1OC(Cc2ccccc2)C1c1ccccc1 (stereo not given) :: 104
COc1cccc(-c2nc3occn3c2-c2ccnc(NCCCNS(=O)(=O)c3ccc(C(F)(F)F)cc3)n2)c1 :: 89.3
Cc1ccc(-n2cc(-c3ccccc3)c3c2N=NN2CCN=C32)cc1 :: 105
CCN1Cc2nc3sc(C)c(C)c3c(=O)n2C=C1C :: 65.3
NC(=O)Nc1ccc(-n2cnc3cc(-c4ccc(O)cc4)ccc32)cc1 :: 92
OC(c1ccc(F)c(C(F)(F)F)c1)c1cnccc1NC1CCCCC1 (stereo not given) :: 81.9
O=C(N/N=C/c1cc2ccccc2n2nnnc12)Nc1ccccc1 :: 108

In the following, a different compound is considered.
Field growth (entry CC1(C)CC(=O)C2=C(C1)N(c1ccc(F)cc1F)C(N)=C(C#N)C2c1cc(Br)ccc1F (stereo not given) ) reads 94.9

###

Tested on: SNB-19 CNS
Assay: NCI-60 one-dose screen, 48 h (100 = growth as untreated, 0 = no growth, -100 = all killed)
Conditions: 10 µM unless noted
About 83,000 compounds went through this panel and 20% of them were active in at least one assay; those are over-represented in the sample as a whole.
Value type: growth (%)
Numeric only. Scale: %

Guide cases for growth, answers given:
COc1cc2c(-c3cc4c(cc3CNCCc3ccc5c(c3)OCO5)OCO4)cccc2c(OC)c1O :: 87.4
O=C(Cc1ccccc1)NNc1nc(Cl)nc(N2CCN(C(c3ccccc3)c3ccccc3)CC2)n1 :: 94
CCCCCCCC(=O)OCC/C=C/C1OC1C1OC(=O)/C=C\C=C\C(=O)N(C(C)=O)C(=O)/C=C(/C)CCC2OC2C1OC(=O)NC(C)=O (stereo not drawn) :: 179
COc1ccc(/C=C2\COc3ccc(-c4ccccc4)cc3C2=O)c(OC)c1 :: 103
C=C1C(=O)O[C@H]2[C@H]1CC/C(COC(=O)NCc1c[nH]c3ccc(Br)cc13)=C\CC[C@@]1(C)O[C@@H]21 :: 40.2

Field growth (entry COc1ccc(/C=C/c2nc(Nc3ccc(S(=O)(=O)NC(C)=O)cc3)c3ccccc3n2)cc1 ) reads 78.9

Field growth (entry Cc1ccc(S(=O)(=O)NNC(=O)/C(=C\c2ccc(Cl)cc2)c2nc3ccccc3s2)cc1 ) reads 88.3

Field growth (entry NS(=O)(=O)c1ccc(CCn2c(SCC(=O)c3ccc(Cl)cc3)nc3ccccc3c2=O)cc1 ) reads 102

###

System: SK-MEL-5 melanoma
Assay: NCI-60 one-dose screen, 48 h (100 = growth as untreated, 0 = no growth, -100 = all killed)
Conditions: 10 µM unless noted
About 83,000 compounds went through this panel and 20% of them were active in at least one assay; those are over-represented in the sample as a whole.
growth: recorded values
Numeric only. Scale: %

NC1[C@H](c2c[nH]c3ccccc23)c2c([nH]c3ccccc23)[C@H]1c1c[nH]c2ccccc12 (stereo partly specified) :: 85.2
COc1cc(C(=O)Nc2cc3c(cc2Oc2cc(C)cc(C)c2)C(=O)N(C)[C@@H](CC(=O)N(C)O)C(=O)N3)c(Br)c(OC)c1OC :: -71.7
Cc1ccc(-c2nc3ccccn3c2/C=C2/C(=O)Nc3cc(Cl)ccc32)cc1 :: 71.9
NC(=O)Nc1ccc(-n2cnc3cc(-c4ccc(O)cc4)ccc32)cc1 :: 85.9

Entry Cc1nnc2c(Cc3ccccc3)nc3ccccc3n12 ; assay system SK-MEL-5 melanoma; growth recorded at 97.6

Entry CCC(=O)Oc1ccc(/C(=C(\C)c2ccccc2)c2ccc(OCCN3CCCCC3)cc2)cc1 ; assay system SK-MEL-5 melanoma; growth recorded at 82.5

Entry COc1ccc(C(=O)/C=C/c2cc3ccccc3n3nnnc23)cc1 ; assay system SK-MEL-5 melanoma; growth recorded at 103

Entry N=C1C(c2nc3ccccc3s2)=C(O)CN1c1cc(Cl)cc(Cl)c1 ; assay system SK-MEL-5 melanoma; growth recorded at 88.9

Entry O=C(Nc1ncc(Cc2cc(Cl)ccc2Cl)s1)c1cccs1 ; assay system SK-MEL-5 melanoma; growth recorded at 42.9

###

growth: recorded values
System: SN12C renal
Test: NCI-60 one-dose screen, 48 h (100 = growth as untreated, 0 = no growth, -100 = all killed)
Conditions: 10 µM unless noted
About 83,000 compounds went through this panel and 20% of them were active in at least one assay; those are over-represented in the sample as a whole. Active and inactive are the calls of the source. Rule for the calls: active = growth percent below 10; inactive = the rest.

Guide cases for growth, answers given:
CCC(=O)Oc1ccc(/C(=C(\C)c2ccccc2)c2ccc(OCCN3CCCCC3)cc2)cc1 :: 79.7% (inactive)
COc1ccc(/C=C/c2nc(Nc3cccc(NC(C)=O)c3)c3ccccc3n2)cc1 :: 89.1% (inactive)
NC(=NCc1ccccc1)C(N=Nc1ccccc1)C(=O)NCc1ccccc1 (centres undefined) :: 58.6% (inactive)
COc1cc2nc(-c3ccc(C(F)(F)F)cc3)cc(OCCN3CCCCC3)c2cc1OC :: 63.6% (inactive)
Cc1ccc(NC(C(=O)c2ccccc2)c2ccccc2)cc1 (centres undefined) :: 50.1% (inactive)
Cc1ccccc1NS(=O)(=O)c1cccc(C(=O)Nc2ccc(Br)cc2)c1 :: 42.9% [25 µM] (inactive)
Cc1ncc(C(=O)Nc2ccc(CN3CCN(C)CC3)c(C(F)(F)F)c2)cc1C#Cc1cnc(N)cc1C#N :: -5.62% (active)
CC(=O)Nc1cccc(-c2ccc3c(c2)NC(=O)/C3=C\c2ccc[nH]2)c1 :: 56.6% (inactive)
COc1cc2c(-c3cc4c(cc3CNCCc3ccc5c(c3)OCO5)OCO4)cccc2c(OC)c1O :: 78.8% (inactive)
O=S(=O)(NCCNc1nccc(-c2c(-c3cccc(O)c3)nc3occn23)n1)c1ccccc1 :: 72.7% (inactive)

Entry CCNC(=O)Oc1ccc(/C(=C(\C)c2ccccc2)c2ccc(OCCN(CC)CC)cc2)cc1 ; assay system SN12C renal; growth recorded at 82.1% (inactive)

Entry O=[N+]([O-])c1ccc(N=Nc2cc(S(=O)(=O)O)c3cccc(S(=O)(=O)O)c3c2O)cc1 ; assay system SN12C renal; growth recorded at 104% (inactive)

Entry O=C(Nc1ncc(Cc2cc(Cl)ccc2Cl)s1)c1cccs1 ; assay system SN12C renal; growth recorded at 65.4% (inactive)

Entry C=C1C(=O)O[C@H]2[C@H]1CC/C(COC(=O)NCc1c[nH]c3ccc(Cl)cc13)=C\CC[C@@]1(C)O[C@@H]21 ; assay system SN12C renal; growth recorded at -60.1% (active)

Entry Cc1ccc(-c2csc(NC(=O)CSc3nc(-c4ccccc4)cc(=O)[nH]3)n2)cc1 ; assay system SN12C renal; growth recorded at 94.9% (inactive)

Entry COc1ccc2c(c1)C(=O)CC(c1ccccc1OC)O2 (centres undefined) ; assay system SN12C renal; growth recorded at 94.6% (inactive)

Entry CC1(C)CC[C@]23CC[C@]4(C)[C@H](CC[C@@H]5[C@@]6(C)CCCNC(C)(C)[C@@H]6CC[C@]54C)[C@H]2[C@H]1OC3 ; assay system SN12C renal; growth recorded at 17.7% (inactive)

Entry Cc1nn(-c2ccccc2)c(Cl)c1/C=N\N=c1/sc2ccccc2n1C ; assay system SN12C renal; growth recorded at 86.8% (inactive)

Entry Cc1ccc(C(=O)/C(=C/c2ccc([N+](=O)[O-])cc2)SCc2ccc(Cl)cc2)cc1 ; assay system SN12C renal; growth recorded at 70.3% (inactive)

###

System: UACC-62 melanoma
Assay: NCI-60 one-dose screen, 48 h (100 = growth as untreated, 0 = no growth, -100 = all killed)
Conditions: 10 µM unless noted
The panel holds about 83,000 compounds, 20% with a hit somewhere; the sample as a whole holds those more often.
Think of 80% as a floor: if growth stands on it or above, it is condition met; beneath it, condition not met.

Some entries whose results are on file:
N/C(=N\C(N)=N\c1nc2ccccc2s1)c1cnccn1 :: condition not met
O=[N+]([O-])CC(c1ccccc1)c1c[nH]c2ccccc12 (configuration not stated) :: condition not met
COc1cc(C2C3CC4CCCC[C@H]4N3[C@@]3(C(=O)Nc4cc(Cl)ccc43)C2C(=O)c2nc3ccccc3[nH]2)cc(OC)c1OC (some centres not stated) :: condition not met
Cn1nc(CC#N)c2c(=N)n(N)cnc21 :: condition met
Cc1c2cc[nH]c(=O)c2c(C)c2c1[nH]c1cc(OCCN3CCN(C)CC3)ccc12 :: condition not met

### Prompt Check this molecule for growth at or above 80%: CCCCCC(=O)Oc1ccc(/C(=C(\C)c2ccccc2)c2ccc(OCCN3CCCCC3)cc2)cc1
### Response condition met

### Prompt Check this molecule for growth at or above 80%: Nc1c(C(=O)Nc2cccc3cnccc23)sc2nc3c(cc12)C(=O)CCC3
### Response condition not met

### Prompt Check this molecule for growth at or above 80%: Cc1nn(-c2ccccc2)c(Cl)c1/C=N\N=c1/sc2ccccc2n1C
### Response condition met

### Prompt Check this molecule for growth at or above 80%: COc1cc(C2C3=C(COC3=O)N(CCO)c3cc4c(cc32)OCO4)cc(OC)c1OC (configuration not stated)
### Response condition not met

### Prompt Check this molecule for growth at or above 80%: C=C1C(=O)O[C@H]2[C@H]1CC/C(COC(=O)NCC(C)c1ccc(CC(C)C)cc1)=C\CC[C@@]1(C)O[C@@H]21 (some centres not stated)
### Response condition not met

### Prompt Check this molecule for growth at or above 80%: O=C1C=CC(=O)N1c1cccc(Cl)c1
### Response condition met
